Target: β-site amyloid precursor protein cleaving enzyme 1 (BACE1) (Homo sapiens)
Sequence (P56817 46-457): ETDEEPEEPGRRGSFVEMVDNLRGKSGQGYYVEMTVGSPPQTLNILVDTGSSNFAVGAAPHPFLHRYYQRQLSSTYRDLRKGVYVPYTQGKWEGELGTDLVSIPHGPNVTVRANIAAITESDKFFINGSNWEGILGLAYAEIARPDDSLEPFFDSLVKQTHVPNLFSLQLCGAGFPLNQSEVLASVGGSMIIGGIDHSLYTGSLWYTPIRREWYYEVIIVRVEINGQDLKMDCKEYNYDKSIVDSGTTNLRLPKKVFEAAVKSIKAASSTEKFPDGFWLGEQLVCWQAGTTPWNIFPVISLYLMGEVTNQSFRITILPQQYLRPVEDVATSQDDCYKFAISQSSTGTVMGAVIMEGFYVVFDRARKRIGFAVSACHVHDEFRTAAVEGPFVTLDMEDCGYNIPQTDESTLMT
Test: FRET peptide substrate assay (Sigma kit CS0010), purified baculovirus-expressed BACE1
Format: biochemical
Recorded pIC50 for the following molecules
Value format note: pIC50 is -log10 of concentration (mol/L); just state the number.

>>> numeric_value("Cc1ccc(-c2ccc(O)cc2)c(C(=C2C=CC(=O)C=C2)c2ccc(O)cc2)c1C#Cc1ccc(O)cc1")
4.29
>>> numeric_value("O=C1C=CC(=C(c2ccc(O)cc2)c2c(-c3ccc(O)cc3)ccc(CO)c2C#Cc2ccc(O)cc2)C=C1")
4.09

Now for the molecule whose pIC50 we want.
Exam item: I would be grateful if you could share the reported pIC50 for `O=Cc1ccc(-c2ccc(O)cc2)c(C(=C2C=CC(=O)C=C2)c2ccc(O)cc2)c1C#Cc1ccc(O)cc1` .
Marked response: 4.31
